Can you tell me Papp A→B at 5 µM for the items I'm about to list?
# assay details: Apparent permeability across apical to basal side in human Caco-2 cells at 5 uM measured for 15 to 60 mins by LC-MS/MS analysis
# Format: ADME, cell-based
# condition set: time 15-60 min
Express it in ×10⁻⁶ cm/s; write the number only.

Given "CC(C)Cc1cc(-c2cccc(C(=O)Cn3ccnc3C(C)(C)C)c2)c(S(=O)(=O)Nc2ncccn2)s1" , respond with its Papp A→B at 5 µM.
4.9

Give a short answer stating reported Papp A→B at 5 µM for COc1ccc2c(c1OCc1ccccc1)C[C@@H](C(=O)O)N(C(=O)C(c1ccccc1)c1ccccc1)C2 [OLODANRIGAN] .
1.8

Note down Papp A→B at 5 µM recorded for "CCCCOC(=O)NS(=O)(=O)c1sc(CC(C)C)cc1-c1cccc(Cn2ccnc2)c1"
3.4

###

# assay details: Efflux ratio of apparent permeability in human Caco-2 cells at 5 uM measured for 15 to 60 mins by LC-MS/MS analysis
# Format: ADME, cell-based
# condition set: time 15-60 min
outcome measure: efflux ratio at 5 µM
// return just the number, without any unit appended

Given "CC(C)Cc1cc(-c2cccc(C(=O)Cn3ccnc3C(C)(C)C)c2)c(S(=O)(=O)Nc2ncccn2)s1" , respond with its efflux ratio at 5 µM.
77

Given the compound COc1ccc2c(c1OCc1ccccc1)C[C@@H](C(=O)O)N(C(=O)C(c1ccccc1)c1ccccc1)C2 [OLODANRIGAN] , write its reported efflux ratio at 5 µM.
32

###

# target of assay: Type-1 angiotensin II receptor (Homo sapiens)
# Sequence (P30556 whole entry): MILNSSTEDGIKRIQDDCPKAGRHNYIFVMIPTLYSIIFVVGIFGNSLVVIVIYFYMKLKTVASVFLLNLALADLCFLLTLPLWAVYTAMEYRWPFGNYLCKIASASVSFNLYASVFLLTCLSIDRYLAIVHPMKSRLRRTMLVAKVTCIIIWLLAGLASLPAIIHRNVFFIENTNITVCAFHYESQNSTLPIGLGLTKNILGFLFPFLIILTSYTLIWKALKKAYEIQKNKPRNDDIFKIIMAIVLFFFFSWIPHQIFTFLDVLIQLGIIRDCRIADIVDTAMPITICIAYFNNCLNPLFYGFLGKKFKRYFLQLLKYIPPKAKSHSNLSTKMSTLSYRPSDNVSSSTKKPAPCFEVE
outcome measure: Ki

Given the molecule "CC(C)Cc1cc(-c2cccc(C(=O)Cn3ccnc3C(C)(C)C)c2)c(S(=O)(=O)Nc2ncccn2)s1" , write its reported Ki.
> 3 µM

###

Exercise: state measured half-life at 1 µM for each of the compounds provided.
# assay details: Stability in human liver microsomes assessed as half life at 1 uM in presence of NADPH by LC-MS/MS analysis
# Format: ADME, Microsome
Lab book: enter the figure in min, no units written.

Annotate the compound "CC(C)Cc1cc(-c2cccc(C(=O)Cn3ccnc3C(C)(C)C)c2)c(S(=O)(=O)Nc2ncccn2)s1" with its measured half-life at 1 µM.
20

State its half-life at 1 µM: "CC(C)Cc1cc(-c2cccc(Cn3ccnc3)c2)c(S(=O)(=O)Nc2nc3ccccc3s2)s1.O=C(O)C(F)(F)F"
56

State, in one line, measured half-life at 1 µM of "CC(C)Cc1cc(-c2cccc(Cn3ccnc3)c2)c(S(=O)(=O)Nc2nccc(C(N)=O)n2)s1.O=C(O)C(F)(F)F"
43

Consider the compound "CC(C)Cc1cc(-c2cccc(C(=O)Cn3ccnc3C(C)(C)C)c2)c(S(=O)(=O)Nc2ncc(Br)cn2)s1" . State its measured half-life at 1 µM.
4.3
